Experiment: solubility in the mobile phase (isopropanol)
Type: physicochemical
Settings: organic solvent or mixture; crude material; isopropanol as the mobile phase
ASSAY ENDPOINT: solubility

Param item = CN1CCN(C(=O)OC2c3nccnc3C(=O)N2c2ccc(Cl)cn2)CC1 (racemic) [Racemic zopiclone] ; retrieve measured solubility.
> 1000 µg/mL
